The entries below are paired with their reported Relative Phosphorylation to Autophosphorylation Control (set at 100), GSK3b.
- MEASURED_ON: glycogen synthase kinase-3-beta (Homo sapiens, UniProt P49841)
- Construct: GST; purchased SignalChem Go9-10G
- Sequence (P49841 whole entry): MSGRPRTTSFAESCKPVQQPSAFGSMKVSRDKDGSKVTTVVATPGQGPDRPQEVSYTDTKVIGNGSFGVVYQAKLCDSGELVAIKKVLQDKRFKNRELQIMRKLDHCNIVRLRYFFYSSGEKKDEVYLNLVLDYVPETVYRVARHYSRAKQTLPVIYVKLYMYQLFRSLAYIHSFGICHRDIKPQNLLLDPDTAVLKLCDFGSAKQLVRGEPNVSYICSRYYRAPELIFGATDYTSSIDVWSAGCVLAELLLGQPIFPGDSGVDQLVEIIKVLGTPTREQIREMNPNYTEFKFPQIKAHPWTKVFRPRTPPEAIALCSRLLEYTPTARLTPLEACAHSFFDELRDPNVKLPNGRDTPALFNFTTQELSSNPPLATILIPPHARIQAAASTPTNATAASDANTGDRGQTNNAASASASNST
- ASSAY_NOTES: In vitro phosphorylation of nucleocapsid peptides, ADP-Glo, GSK3b
- Assay type: biochemical
- APPLIED_CONDITIONS: peptide ~250 μM, 250 μM ATP, 30 min at 30° C.; duplicate measurements
Where no end group is shown, it is not given here. [ ]: non-standard residue; d: D form. pT = C[C@@H](OP(=O)(O)O)[C@H](N)C(=O)O; pS = N[C@@H](COP(=O)(O)O)C(=O)O
REPORTED_PROPERTY: Relative Phosphorylation to Autophosphorylation Control (set at 100), GSK3b

SUBSTANCE	MEAS_VALUE
RGGSQASSRSSSRS [SCV2-N [177-190], synthetic peptide modeled after SARS-CoV-2 nucleocapsid protein phosphorylation sites]	107
RNSTPGSSRGT(pS)PAR (RNSTPGSSRGT[pS]PAR) [SCV2-N [195-209]-pS206, synthetic peptide modeled after SARS-CoV-2 nucleocapsid protein phosphorylation sites, pre-phosphorylated at S206]	1068
RGGSQASSRSS(pS)RS (RGGSQASSRSS[pS]RS) [SCV2-N [177-190]-pS188, synthetic peptide modeled after SARS-CoV-2 nucleocapsid protein phosphorylation sites, pre-phosphorylated at S188]	1209
SQASSRSSSR(pS)RNS (SQASSRSSSR[pS]RNS) [SCV2-N [180-193]-pS190, synthetic peptide modeled after SARS-CoV-2 nucleocapsid protein phosphorylation sites, pre-phosphorylated at S190]	111
SSRSRNSSRNS(pT)PG (SSRSRNSSRNS[pT]PG) [SCV2-N [187-200]-pT198, synthetic peptide modeled after SARS-CoV-2 nucleocapsid protein phosphorylation sites, pre-phosphorylated at T198]	1042
SSRSRNSSRNSTPG [SCV2-N [187-200], synthetic peptide modeled after SARS-CoV-2 nucleocapsid protein phosphorylation sites]	108
RNSTPGSSRGTSPAR [SCV2-N [195-209], synthetic peptide modeled after SARS-CoV-2 nucleocapsid protein phosphorylation sites]	137
SQASSRSSSRSRNS [SCV2-N [180-193], synthetic peptide modeled after SARS-CoV-2 nucleocapsid protein phosphorylation sites]	102
